Assay: A CellTox Green Cytotoxicity Assay to monitor cytotoxicity in HEK293 cells - 24 hour (AID 1224875); also: nearly all actives have a fitted effect of over 45% in size; also: potency is read from the fitted curve at half-maximal effect
Settings: CellTox Green fluorescence; series mostly up to 76.8 µM
Inconclusive results are not listed. The source made the active and inactive calls. Calls follow the shape of the dose curve; as a rule, active = well fitted activation curve with a large enough effect in the repeat runs; inconclusive = weak or mixed curves; inactive = flat fitted curve, though single readings scatter.
measurement-name: Potency

compound	measurement-name	recorded-result
O=[N+]([O-])c1ccc(Cl)c(Cl)c1Cl	Potency	24.2 µM (active)
CCCCN(CCCC)C(=S)S	Potency	inactive
CCOP(=O)(Sc1ccccc1)Sc1ccccc1	Potency	inactive
CC[C@]1(O)CC[C@H]2[C@@H]3CCC4=CCCC[C@@H]4[C@H]3CC[C@@]21C	Potency	inactive
[O-][Cl+3]([O-])([O-])O	Potency	inactive
CO/N=C(/C1=NOCCO1)c1ccccc1Oc1ncnc(Oc2ccccc2Cl)c1F	Potency	inactive
COP(=O)(OC)O/C(=C\Cl)c1cc(Cl)c(Cl)cc1Cl	Potency	inactive
BrCC(Br)(Br)Br	Potency	inactive
CCN1CCC2(CC1)COc1cc3c(cc12)N(C(=O)c1ccc(-c2ccc(-c4nnc(C)o4)cc2C)cc1)CC3	Potency	50.7 µM (active)
CC(O)C(=O)[O][Hg][c]1ccccc1 (stereo not drawn)	Potency	21.9 µM (active)
O=[N+]([O-])c1ccc(CCl)cc1	Potency	inactive
CCN(CC)CCc1c[nH]c2ccccc12	Potency	inactive
Fc1ccc(C(OCCN2CCN(CCCc3ccccc3)CC2)c2ccc(F)cc2)cc1	Potency	23.9 µM (active)

----------
Test: qHTS RealTime-Glo MT Cell Viability Assay in HEK293 cells - 8 hour (AID 1224887); also: nearly all actives have a fitted effect of over 50% in size
Conditions: RealTime-Glo luminescence; series mostly up to 76.8 µM
Records with an inconclusive call do not appear. Activity calls are given as the source filed them. Calls come from the whole dose curve; as a rule, active = well fitted cell-killing curve with a large enough effect in the repeat runs; inconclusive = weak or mixed curves, or effect the other way; inactive = flat fitted curve, though single readings scatter.
Labels: TRUE = active, FALSE = inactive

molecule	class-assignment
O.O.O.O.O.O.O=S(=O)([O-])[O-].[Ni+2]	FALSE
N#Cc1ccc(N(CC(N)=O)CC(F)(F)F)cc1C(F)(F)F	FALSE
CN(C)CCc1c[nH]c2ccccc12	FALSE
Nc1c(Cl)c(Cl)c(Cl)c(Cl)c1Cl	FALSE
CC(Cc1ccccc1)N(C)Cc1ccco1 (stereo not drawn)	FALSE
O=S1OCC2C(CO1)C1(Cl)C(Cl)=C(Cl)C2(Cl)C1(Cl)Cl (stereo not drawn)	TRUE
O.O.O.O.O.O.O.O=S(=O)([O-])[O-].[Co+2]	FALSE
CC(=O)[O-].CC(=O)[O-].CC(=O)[O-].[Cr+3]	FALSE
O=C(CCCCl)c1ccc(F)cc1	FALSE
CCC1(CC)C(=O)N=C(O)NC1=O	FALSE
O=Cc1ccccc1	FALSE
COP(=S)(OC)Oc1ccc([N+](=O)[O-])c(C)c1	FALSE
Cc1ccc([N+](=O)[O-])[c]2c1[O][Hg]2	TRUE

----------
Molecular target: Cytochrome P450 2C9 (Homo sapiens)
Experiment: Cytochrome P450 Family 2 Subfamily C Member 9 (CYP2C9) small molecule antagonists: luciferase reporter qHTS assay (AID 1671198); also: nearly all actives have a fitted effect of over 50% in size; also: potency is read from the fitted curve at half-maximal effect
Conditions: P450-Glo CYP2C9 enzyme assay, luciferin luminescence; series mostly up to 115 µM
Results filed as inconclusive are left out. Active and inactive are the calls of the source. The call rests on the fitted dose curve; in most records, active means well fitted inhibition curve with a large enough effect in the repeat runs; inconclusive means weak or mixed curves; inactive means no such curve, though single readings can be large or run the other way.
measurement-name: Potency

molecule	measurement-name	recorded-result
ClC1=C(Cl)[C@]2(Cl)[C@H]3[C@H]([C@@H]4C=C[C@H]3C4)[C@@]1(Cl)C2(Cl)Cl	Potency	inactive
CC(C)C(Nc1ccc(C(F)(F)F)cc1Cl)C(=O)OC(C#N)c1cccc(Oc2ccccc2)c1 (configuration not stated)	Potency	6.38 µM (active)
O=[N+]([O-])C(Br)Br	Potency	inactive
Cc1ccc2cc3c(ccc4ccccc43)c3c2c1CC3	Potency	5.65 µM (active)
ClSC(Cl)(Cl)Cl	Potency	31.8 µM (active)
Cc1cnc2c(C(=O)O)c(Cl)ccc2c1	Potency	inactive
O=[N+]([O-])c1cccc2cccc([N+](=O)[O-])c12	Potency	inactive
Oc1ccc(Cl)c(Cl)c1	Potency	inactive
Cc1ccc(C)c2ccccc12	Potency	inactive
CC(=O)[O][Sn]([c]1ccccc1)([c]1ccccc1)[c]1ccccc1	Potency	0.894 µM (active)
CCOP(=S)(OCC)Oc1cc(C)nc(N(CC)CC)n1	Potency	11.2 µM (active)
COP(=S)(OC)Oc1nc(Cl)c(Cl)cc1Cl	Potency	25.2 µM (active)

----------
Test: A CellTox Green Cytotoxicity Assay to monitor cytotoxicity in HEK293 cells - 40 hour (AID 1224871); also: nearly all actives have a fitted effect of over 45% in size
Conditions: CellTox Green fluorescence; series mostly up to 76.8 µM
Inconclusive results are not listed. Active and inactive are the calls of the source. The call rests on the fitted dose curve; in most records, active means well fitted activation curve with a large enough effect in the repeat runs; inconclusive means weak or mixed curves; inactive means flat fitted curve, though single readings scatter.
Labels: y (active), n (inactive)

molecule	class-assignment
O=C1C[C@@H]2OCC=C3CN4CC[C@]56c7ccccc7N1[C@H]5[C@H]2[C@H]3C[C@H]46	n
ClC1(Cl)C2(Cl)C3(Cl)C4(Cl)C(Cl)(Cl)C5(Cl)C3(Cl)C1(Cl)C5(Cl)C24Cl (stereo not given)	n
CCN(CC)CCc1c[nH]c2ccccc12	n
Fc1ccc(C(OCCN2CCN(CCCc3ccccc3)CC2)c2ccc(F)cc2)cc1	y
c1ccc2c(c1)cc1ccc3cccc4ccc2c1c34	n

----------
Assay: qHTS assay for small molecule agonists of the antioxidant response element (ARE) signaling pathway - cell viability counter screen (AID 743203); also: nearly all actives have a fitted effect of over 55% in size
Conditions: ARE-bla HepG2 viability, CellTiter-Glo luminescence, 16 h; series mostly up to 73.3 µM
Inconclusive results are not listed. Activity calls are given as the source filed them. Calls come from the whole dose curve.
Labels: T for active, F for inactive

compound	class-assignment
CNN	F
CC(=O)[O-].CC(=O)[O-].O.O.O.[Pb+2]	F
O=S1OCC2C(CO1)C1(Cl)C(Cl)=C(Cl)C2(Cl)C1(Cl)Cl (centres undefined)	T
CCCCON=O	F
CC(C)C(Br)C(=O)NC(N)=O (centres undefined)	F
CC(Cc1ccc2c(c1)OCO2)NO (centres undefined)	F
CSSC	F
CCCCC/C=C\C/C=C\C/C=C\C/C=C\CCCC(=O)NCC(=O)O	F
Nc1ccccc1-c1ccccc1	F
CN	F
Cc1ccc2cc3c(ccc4ccccc43)c3c2c1CC3	F
C[C@@H]1CC2=CC(=O)CC[C@@H]2[C@H]2CC[C@@]3(C)[C@@H](CC[C@]3(C)O)[C@@H]21	F
CCOP(=O)(OCC)Oc1cc(C)nc(C(C)C)n1	F
CC(=O)[O][Pb]([c]1ccccc1)([c]1ccccc1)[c]1ccccc1	T

----------
Assay: qHTS assay to identify small molecule antagonists of the estrogen related receptor (ERR) signaling pathway from Tox21 library (AID 1224848); also: nearly all actives have a fitted effect of over 50% in size
Conditions: ERR reporter cell line, luciferase antagonist mode, 18 h; series mostly up to 92.4 µM
Inconclusive results are not listed. Calls of active or inactive are those of the source. Calls follow the shape of the dose curve; as a rule, active = well fitted inhibition curve with a large enough effect in the repeat runs; inconclusive = weak or mixed curves; inactive = no such curve, though single readings can be large or run the other way.
Labels: active, inactive

compound	class-assignment
Nc1cc(Cl)ccc1Cl	inactive
CC(Cc1ccc(OCC(=O)O)cc1)NCC(O)c1csc(C(F)(F)F)n1 (stereo unspecified)	inactive
O=C1C(Cl)=C(Cl)C(=O)C(Cl)=C1Cl	active
CCC[CH2][Sn]([CH2]CCC)([CH2]CCC)[O][Sn]([CH2]CCC)([CH2]CCC)[CH2]CCC	active
CC(C)(C)c1ccc(OP(=O)(Oc2ccccc2)Oc2ccccc2)cc1	active
Cc1cnc2c(C(=O)O)c(Cl)ccc2c1	inactive
CCCCN(CCCC)C(=S)S	inactive
CNC(=O)/C=C(\C)OP(=O)(OC)OC	inactive
N#Cc1sc2c(=O)c3ccccc3c(=O)c=2sc1C#N	active
CCN(CC)Cc1nccn1-c1ccc([N+](=O)[O-])cc1C(=O)c1ccccc1Cl	inactive
CCOP(=S)(NC(C)C)Oc1ccccc1C(=O)OC(C)C (stereo unspecified)	active
O=[N+]([O-])C(Br)Br	inactive
COC(=O)N(OC)c1ccccc1COc1ccn(-c2ccc(Cl)cc2)n1	active
Nc1ccc(N=Nc2ccccc2)cc1	inactive
Oc1ccc([C@H]2CNCc3c2ccc(O)c3O)cc1O	inactive
O=C(CCCCl)c1ccc(F)cc1	inactive
N#Cc1c2ccccc2cc2ccccc12	inactive
COc1nc(C)nc(NC(=O)NS(=O)(=O)c2ccccc2Cl)n1	inactive
c1ccc2c(c1)cc1ccc3cccc4ccc2c1c34	inactive
O=C(Nc1ccc(F)cc1F)c1cccnc1Oc1cccc(C(F)(F)F)c1	inactive
CCOP(=O)(OCC)Oc1cc(C)nc(C(C)C)n1	inactive
CN=C=O	inactive
COP(=S)(OC)Oc1nc(Cl)c(Cl)cc1Cl	inactive
CCc1cccc(C)c1N(C(=O)CCl)[C@@H](C)COC	active
CCOC(=O)CCN(SN(C)C(=O)Oc1cccc2c1OC(C)(C)C2)C(C)C	active
c1ccc(Nc2ccc(Nc3ccccc3)cc2)cc1	inactive
CN1CCc2cc3c(cc2C1O)OCO3 (stereo unspecified)	inactive
Brc1cccc(-c2ccccc2)c1	inactive
CCCCN(CCCC)C(=S)[S-].CCCCN(CCCC)C(=S)[S-].[Ni+2]	inactive
Clc1ccc(C2(Cn3cncn3)OCCO2)c(Cl)c1	inactive
Oc1ccc(Cl)c(Cl)c1	inactive
Nc1nc(N)c(N)c(N)n1	inactive
CCCCCCC[CH2][Sn]([Cl])([Cl])[CH2]CCCCCCC	active
O=Cc1ccccc1	inactive
C=C(C)C(=O)[O][Sn]([CH2]CCC)([CH2]CCC)[CH2]CCC	active
CNC(=O)Oc1cc(C)cc(C(C)C)c1	inactive
BrCC(Br)(Br)Br	inactive
CC(O)C(=O)[O][Hg][c]1ccccc1 (stereo unspecified)	active
ClC1(Cl)C2(Cl)C3(Cl)C4(Cl)C(Cl)(Cl)C5(Cl)C3(Cl)C1(Cl)C5(Cl)C24Cl (stereo unspecified)	inactive
O=c1c2ccccc2c(=O)c2c1cc(Cl)c1[nH]c3c([nH]c12)c(Cl)cc1c(=O)c2ccccc2c(=O)c13	inactive
[F][Sn]([c]1ccccc1)([c]1ccccc1)[c]1ccccc1	active
CCC[CH2][Sn]([CH2]CCC)([CH2]CCC)[CH2]CCC	active
Nc1ccc(Cl)cc1C(=O)c1ccccc1F	inactive
C[C@H]1[C@H](c2ccc(Cl)cc2)SC(=O)N1C(=O)NC1CCCCC1	active
Cc1c([N+](=O)[O-])c(C)c([N+](=O)[O-])c(C(C)(C)C)c1[N+](=O)[O-]	inactive
Cc1cc(C2CC2)nc(Nc2ccccc2)n1	inactive
O=C1C[C@@H]2OCC=C3CN4CC[C@]56c7ccccc7N1[C@H]5[C@H]2[C@H]3C[C@H]46	inactive
Cc1nn(-c2cc(NS(C)(=O)=O)c(Cl)cc2Cl)c(=O)n1C(F)F	inactive
CCC1COC(Cn2cncn2)(c2ccc(Cl)cc2Cl)O1 (stereo unspecified)	active
COP(=O)(OC)O/C(=C\Cl)c1cc(Cl)c(Cl)cc1Cl	active
CCCCCON=O	inactive
